Ref: a collection of fitness landscapes (doi:10.1126/science.1257360)

B1: PhoQ; a variant is named by its letters at X, in order, P23837 (parent)
chain: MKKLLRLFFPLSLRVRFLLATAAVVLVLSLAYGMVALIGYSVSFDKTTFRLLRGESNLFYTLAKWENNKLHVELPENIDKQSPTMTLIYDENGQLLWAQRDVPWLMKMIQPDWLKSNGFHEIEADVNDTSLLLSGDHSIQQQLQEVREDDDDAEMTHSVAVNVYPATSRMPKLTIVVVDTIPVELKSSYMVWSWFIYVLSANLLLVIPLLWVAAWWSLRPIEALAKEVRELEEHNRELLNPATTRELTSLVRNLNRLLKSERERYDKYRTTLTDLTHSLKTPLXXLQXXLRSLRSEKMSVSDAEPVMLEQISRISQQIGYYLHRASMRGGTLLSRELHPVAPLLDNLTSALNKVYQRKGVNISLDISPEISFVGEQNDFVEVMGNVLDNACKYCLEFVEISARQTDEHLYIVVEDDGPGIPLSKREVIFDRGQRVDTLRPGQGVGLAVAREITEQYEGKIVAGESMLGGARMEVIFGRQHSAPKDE

- Variants of: B1
- experiment-description: enrichment ratio after two sorts for PhoP signalling (ratio (wild type AVST 3.29)); higher = more functional
- conditions: with PhoP (E. coli)
In all, about 140,000 sequences were measured (“enrichment ratio after two sorts for PhoP signalling”: median about 0, highest 2% from about 11 on). What follows is part of a selection rich in the highest values, with near analogues and random picks from the rest.
# enrichment ratio >= 10 gives fulfilled, anything below gives not fulfilled

FEWK	not fulfilled
QCCN	not fulfilled
GISC	fulfilled
MMCI	not fulfilled
KDQH	not fulfilled
TNNL	not fulfilled
QYFC	not fulfilled
TLHF	not fulfilled
TLQF	fulfilled
TNSC	fulfilled

[Q] For this variant, is measured enrichment ratio 10 or higher? `TNGL`
[A] fulfilled

[Q] Say whether `MNGI` shows enrichment ratio of 10 or more.
[A] not fulfilled
